Below, each entry is listed with its recorded IC50.
- study.system: αvβ1 integrin (αvβ1 expressing CHO cells) (Homo sapiens (Human), UniProt P05556+P06756)
- Sequence (P06756 31-889): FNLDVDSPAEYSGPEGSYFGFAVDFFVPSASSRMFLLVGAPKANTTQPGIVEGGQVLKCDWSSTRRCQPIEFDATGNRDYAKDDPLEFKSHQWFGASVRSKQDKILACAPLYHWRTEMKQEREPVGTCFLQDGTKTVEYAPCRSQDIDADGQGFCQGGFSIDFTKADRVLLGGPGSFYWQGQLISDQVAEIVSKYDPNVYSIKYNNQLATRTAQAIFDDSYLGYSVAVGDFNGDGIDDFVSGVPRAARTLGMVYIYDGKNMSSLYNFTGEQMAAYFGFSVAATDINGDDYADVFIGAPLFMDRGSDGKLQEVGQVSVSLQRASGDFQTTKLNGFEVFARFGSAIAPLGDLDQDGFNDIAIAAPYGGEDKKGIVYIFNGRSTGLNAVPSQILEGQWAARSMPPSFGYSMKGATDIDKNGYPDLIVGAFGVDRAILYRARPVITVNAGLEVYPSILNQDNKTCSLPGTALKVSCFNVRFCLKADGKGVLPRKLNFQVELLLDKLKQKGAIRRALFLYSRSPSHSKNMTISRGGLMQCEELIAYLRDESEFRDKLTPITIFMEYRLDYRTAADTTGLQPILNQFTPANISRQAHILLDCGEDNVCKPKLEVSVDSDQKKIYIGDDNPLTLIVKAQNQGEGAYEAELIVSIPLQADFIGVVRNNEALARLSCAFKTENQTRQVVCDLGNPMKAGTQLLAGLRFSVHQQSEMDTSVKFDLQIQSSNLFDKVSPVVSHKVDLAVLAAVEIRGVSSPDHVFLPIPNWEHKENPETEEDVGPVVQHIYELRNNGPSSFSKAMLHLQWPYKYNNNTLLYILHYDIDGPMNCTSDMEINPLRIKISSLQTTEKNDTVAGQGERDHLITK
- Sequence (P06756 891-1048 partner): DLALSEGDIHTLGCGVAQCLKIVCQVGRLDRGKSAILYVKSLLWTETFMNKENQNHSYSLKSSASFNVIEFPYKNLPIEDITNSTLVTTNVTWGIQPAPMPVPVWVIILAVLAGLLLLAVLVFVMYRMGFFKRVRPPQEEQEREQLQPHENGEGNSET
- Sequence (P05556 21-798): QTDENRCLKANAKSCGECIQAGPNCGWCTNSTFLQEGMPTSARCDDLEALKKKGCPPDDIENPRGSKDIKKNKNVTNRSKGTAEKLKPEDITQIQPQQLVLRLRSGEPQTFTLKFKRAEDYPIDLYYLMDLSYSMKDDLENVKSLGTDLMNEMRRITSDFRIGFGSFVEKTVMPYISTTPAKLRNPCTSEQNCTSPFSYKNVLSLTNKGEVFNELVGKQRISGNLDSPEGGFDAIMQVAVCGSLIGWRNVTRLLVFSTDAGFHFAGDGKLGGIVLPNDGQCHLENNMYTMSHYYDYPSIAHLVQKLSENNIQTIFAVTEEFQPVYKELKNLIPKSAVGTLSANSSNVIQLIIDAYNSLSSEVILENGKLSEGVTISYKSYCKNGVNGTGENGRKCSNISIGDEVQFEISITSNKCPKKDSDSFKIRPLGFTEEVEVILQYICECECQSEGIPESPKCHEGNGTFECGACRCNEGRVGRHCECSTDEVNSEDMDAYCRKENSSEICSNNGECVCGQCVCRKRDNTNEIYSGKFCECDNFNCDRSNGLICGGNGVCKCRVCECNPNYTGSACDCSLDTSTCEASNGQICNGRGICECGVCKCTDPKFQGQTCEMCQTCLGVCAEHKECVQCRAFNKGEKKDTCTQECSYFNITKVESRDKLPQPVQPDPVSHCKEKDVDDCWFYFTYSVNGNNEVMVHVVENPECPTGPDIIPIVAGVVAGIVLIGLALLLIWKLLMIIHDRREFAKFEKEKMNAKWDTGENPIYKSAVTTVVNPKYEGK
- assay.summary: Cell adhesion assay: inhibition of αvβ1 expressing CHO cells attaching to TGFβ1LAP
- Type: cell-based
- measurement.conditions: 1 h at 37° C., crystal violet absorbance 595 nm, read-out: αvβ1 Inhibition IC50 (nM)-range
measured.endpoint: IC50

Cn1ncc2ccc(C(=O)N[C@@H](Cc3ccc(OCCCc4ccc5c(n4)NCCC5)cc3)C(=O)O)cc21 [Example 41]: < 50 nM
Cn1ncc2c(C(=O)N[C@@H](CCCCCCCc3ccc4c(n3)NCCC4)C(=O)O)cccc21 [Compound 115]: 250 to 1000 nM
Nc1cc(C(=O)N[C@@H](Cc2ccc(OCCCc3ccc4c(n3)NCCC4)cc2)C(=O)O)ccc1O [Example 11]: 50 to 250 nM
O=C(N[C@@H](CCCCCCCCNC1=NCCS1)C(=O)O)c1c(Cl)cccc1Cl [Example 49]: 50 to 250 nM
CN1CCN=C(NCCCCOc2ccc(C[C@H](NC(=O)c3c(Cl)cccc3Cl)C(=O)O)cc2)C1=O [Example 17]: > 1000 nM
Cn1ncc2ccc(C(=O)N[C@@H](CCCCCCCc3ccc4c(n3)NCCC4)C(=O)O)cc21 [Compound 102]: 50 to 250 nM
Cn1cc2ccc(C(=O)N[C@@H](Cc3ccc(OCCCc4ccc5c(n4)NCCC5)cc3)C(=O)O)cc2n1 [Example 44]: < 50 nM
O=C(N[C@@H](Cc1ccc(OCCCc2ccc3c(n2)NCCC3)cc1)C(=O)O)c1c(Cl)cncc1Cl [Example 15]: < 50 nM
O=CNc1cc(C(=O)N[C@@H](Cc2ccc(OCCCc3ccc4c(n3)NCCC4)cc2)C(=O)O)ccc1O [Example 12]: < 50 nM
